All figures here come from PubChem BioAssay (Tox21).

- procedure_text: qHTS assay to identify small molecule agonists of H2AX - cell viability counter screen (AID 1224847); also: nearly all actives have a fitted effect of over 30% in size
- details: CHO-K1 viability, CellTiter-Glo luminescence, 3 h; series mostly up to 154 µM
Results filed as inconclusive are left out. The source made the active and inactive calls. Calls follow the shape of the full dose curve.
Thanks in advance; please answer with one of these: active, inactive

Reference set (4 entries):
compound: CC(C)OB(OC(C)C)OC(C)C
label_class: inactive

compound: C[C@]12CC[C@H]3[C@@H](CCC4=CC(=O)CC[C@@]43C)[C@@H]1CC[C@@H]2C(=O)CO
label_class: inactive

compound: CC(C)OC=O
label_class: inactive

compound: C#C[C@]1(O)CC[C@H]2[C@@H]3CCc4cc(OC)ccc4[C@H]3CC[C@@]21C
label_class: active

## Input Test call, this compound: `CCCc1c(OCCCCc2nn[nH]n2)ccc(C(C)=O)c1O`
## Output inactive

## Input Test call, this compound: `O=C(c1ccccc1)c1ccc(O)cc1O`
## Output inactive

## Input Test call, this compound: C=C(C)C1CC=C(C)CC1 (stereo not drawn)
## Output inactive

## Input Test call, this compound: `O=C(O)c1ccccc1Nc1cccc(C(F)(F)F)c1`
## Output inactive

## Input Test call, this compound: `S=C(NC1CCCCC1)NC1CCCCC1`
## Output inactive

## Input Test call, this compound: `CNCCCC12CCC(c3ccccc31)c1ccccc12`
## Output active

## Input Test call, this compound: `CN(C)CCN(Cc1cccs1)c1ccccn1`
## Output inactive

## Input Test call, this compound: CC(C)CC(C)(O)C#CC(C)(O)CC(C)C (stereo not drawn)
## Output inactive

## Input Test call, this compound: `CCOC(=O)C(C#N)=C(c1ccccc1)c1ccccc1`
## Output inactive

## Input Test call, this compound: `COc1cccc2c1C(=O)c1c(O)c3c(c(O)c1C2=O)C[C@@](O)(C(=O)CO)C[C@@H]3O[C@H]1C[C@H](N)[C@H](O)[C@H](C)O1`
## Output inactive

====

- test_system: Nuclear receptor ROR-gamma (Homo sapiens)
- procedure_text: qHTS assay to identify small molecule antagonists of the retinoid-related orphan receptor gamma (ROR-gamma) signaling pathway (AID 1159521; also: nearly all actives have a fitted effect of over 50% in size; also: potency is read from the fitted curve at half-maximal effect)
- details: Tet-on RORgamma CHO cells, RORE-luciferase, 16 h; series mostly up to 92.4 µM
Results filed as inconclusive are left out. Calls of active or inactive are those of the source. The call rests on the fitted dose curve; in most records, active means well fitted inhibition curve with a large enough effect in the repeat runs; inconclusive means weak or mixed curves, or effect the other way; inactive means no such curve, though single readings can be large or run the other way.
endpoint_name: Potency

Below: 6 compounds and their reported Potency.
compound: CCCCC(CC)COC(=O)c1ccc(N(C)C)cc1 (stereo unspecified)
Potency: inactive
--
compound: COc1cc([C@@H]2c3cc4c(cc3[C@H](O)[C@H]3COC(=O)[C@H]23)OCO4)cc(OC)c1OC
Potency: 0.0306 µM (active)
--
compound: c1ccncc1
Potency: inactive
--
compound: C[C@]12CCC(=O)C=C1CC[C@@H]1[C@@H]2C(=O)C[C@@]2(C)[C@H]1CC[C@]2(O)C(=O)CO
Potency: inactive
--
compound: OC[C@H]1O[C@@H]2O[C@H]3[C@H](O)[C@@H](O)[C@@H](O[C@H]4[C@H](O)[C@@H](O)[C@@H](O[C@H]5[C@H](O)[C@@H](O)[C@@H](O[C@H]6[C@H](O)[C@@H](O)[C@@H](O[C@H]7[C@H](O)[C@@H](O)[C@@H](O[C@H]8[C@H](O)[C@@H](O)[C@@H](O[C@H]1[C@H](O)[C@H]2O)O[C@@H]8CO)O[C@@H]7CO)O[C@@H]6CO)O[C@@H]5CO)O[C@@H]4CO)O[C@@H]3CO
Potency: inactive
--
compound: O=P(O)(O)O
Potency: inactive

## Input Quick check: Potency of `NC=O` ?
## Output inactive

## Input Quick check: Potency of `COC(=O)c1ccccc1` ?
## Output inactive

## Input Quick check: Potency of `CCCCOCCOCCO` ?
## Output inactive

## Input Quick check: Potency of C=CC(C)(CCC=C(C)C)OC(C)=O (stereo unspecified) ?
## Output inactive

## Input Quick check: Potency of COc1ccc(OC)c(C(O)CNC(=O)CN)c1 (stereo unspecified) ?
## Output inactive
